Measured Ki, listed per entry for reference.
biological target: Human recombinant cyclophilin A (CypA) (Homo sapiens); construct: purchased Sigma C3805; experiment: Protease-free PPIase assay, cyclophilin A; type: biochemical; conditions: human recombinant CypA, 10 °C, SUC-AAPF-pNA substrate; read-out: CypA Protease-free PPIase Assay Ki
Sequence (P62937 whole entry): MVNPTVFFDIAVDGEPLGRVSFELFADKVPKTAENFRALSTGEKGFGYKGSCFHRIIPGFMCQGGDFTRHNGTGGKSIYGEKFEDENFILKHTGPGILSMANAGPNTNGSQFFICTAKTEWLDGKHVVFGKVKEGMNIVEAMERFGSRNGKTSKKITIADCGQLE
Number in nM, nothing else.

Worked examples, 3 molecules total:
[
  {
    "Molecule": "CC(C)C[C@@H]1C(=O)N(C)[C@H](CC(C)C)C(=O)N(C)[C@H](C(C)C)C(=O)N(C)[C@H]([C@@H]2OC(O)C[C@H]2C)C(=O)N[C@H](C(C)C)C(=O)N(C)CC(=O)N(C)[C@@H](CC(C)C)C(=O)N[C@H](C(C)C)C(=O)N(C)[C@H](CC(C)C)C(=O)N[C@H](C)C(=O)N[C@@H](C)C(=O)N1C (stereo partly drawn)",
    "Experimental value": 414
  },
  {
    "Molecule": "CC[C@@H]1C(=O)N(C)[C@@H](CC(C)C)C(=O)N[C@H](C(C)C)C(=O)N(C)[C@H](CC(C)C)C(=O)N[C@H](C)C(=O)N[C@@H](C)C(=O)N(C)[C@H](CC(C)C)C(=O)N(C)[C@H](CC(C)C)C(=O)N(C)[C@H](C(C)C)C(=O)N(C)[C@H]([C@@H]2OCC[C@H]2C)C(=O)N[C@H](CC)C(=O)N1C",
    "Experimental value": 81
  },
  {
    "Molecule": "CC[C@H]1NC(=O)[C@@H]([C@@H]2OCN(C)C[C@H]2C)N(C)C(=O)[C@@H](C(C)C)N(C)C(=O)[C@@H](CC(C)C)N(C)C(=O)[C@@H](CC(C)C)N(C)C(=O)[C@H](C)NC(=O)[C@@H](C)NC(=O)[C@@H](CC(C)C)N(C)C(=O)[C@@H](C(C)C)NC(=O)[C@H](CC(C)C)N(C)C(=O)[C@@H](C)N(C)C1=O",
    "Experimental value": 550
  }
]

Query :: # query: Ki | item CC[C@H]1NC(=O)[C@@H]([C@@H]2OCCCC[C@H]2C)N(C)C(=O)[C@@H](C(C)C)N(C)C(=O)[C@@H](CC(C)C)N(C)C(=O)[C@@H](CC(C)C)N(C)C(=O)[C@H](C)NC(=O)[C@@H](C)NC(=O)[C@@H](CC(C)C)N(C)C(=O)[C@@H](C(C)C)NC(=O)[C@H](CC(C)C)N(C)C(=O)CN(C)C1=O | system: Human recombinant cyclophilin A (CypA) (Homo sapiens)
Result :: 386

Query :: # query: Ki | item CC[C@H]1NC(=O)[C@@H]([C@@H]2OCC[C@H]2C)N(C)C(=O)[C@@H](C(C)C)N(C)C(=O)[C@@H](CC(C)C)N(C)C(=O)[C@@H](CC(C)C)N(C)C(=O)[C@H](C)NC(=O)[C@@H](C)NC(=O)[C@@H](CC(C)C)N(C)C(=O)[C@@H](C(C)C)NC(=O)[C@H](CC(C)C)N(C)C(=O)[C@@H](C(F)F)N(C)C1=O | system: Human recombinant cyclophilin A (CypA) (Homo sapiens)
Result :: 198

Query :: # query: Ki | item CC[C@H]1NC(=O)[C@@H]([C@@H]2OCCC[C@H]2C)N(C)C(=O)[C@@H](C(C)C)N(C)C(=O)[C@@H](CC(C)C)N(C)C(=O)[C@@H](CC(C)C)N(C)C(=O)[C@H](C)NC(=O)[C@@H](C)NC(=O)[C@@H](CC(C)C)N(C)C(=O)[C@@H](C(C)C)NC(=O)[C@H](CC(C)C)N(C)C(=O)[C@@H](C)N(C)C1=O | system: Human recombinant cyclophilin A (CypA) (Homo sapiens)
Result :: 38
